target: MPO (Homo sapiens); assay: MPO-catalyzed HOCl production (taurine/TMB assay); details: MPO 20 nM, H2O2 50 μM, NaCl 150 mM, taurine 5 mM, 30 min; read-out: IC50 for inhibition of MPO-catalyzed HOCl formation
Sequence (P05164 49-745): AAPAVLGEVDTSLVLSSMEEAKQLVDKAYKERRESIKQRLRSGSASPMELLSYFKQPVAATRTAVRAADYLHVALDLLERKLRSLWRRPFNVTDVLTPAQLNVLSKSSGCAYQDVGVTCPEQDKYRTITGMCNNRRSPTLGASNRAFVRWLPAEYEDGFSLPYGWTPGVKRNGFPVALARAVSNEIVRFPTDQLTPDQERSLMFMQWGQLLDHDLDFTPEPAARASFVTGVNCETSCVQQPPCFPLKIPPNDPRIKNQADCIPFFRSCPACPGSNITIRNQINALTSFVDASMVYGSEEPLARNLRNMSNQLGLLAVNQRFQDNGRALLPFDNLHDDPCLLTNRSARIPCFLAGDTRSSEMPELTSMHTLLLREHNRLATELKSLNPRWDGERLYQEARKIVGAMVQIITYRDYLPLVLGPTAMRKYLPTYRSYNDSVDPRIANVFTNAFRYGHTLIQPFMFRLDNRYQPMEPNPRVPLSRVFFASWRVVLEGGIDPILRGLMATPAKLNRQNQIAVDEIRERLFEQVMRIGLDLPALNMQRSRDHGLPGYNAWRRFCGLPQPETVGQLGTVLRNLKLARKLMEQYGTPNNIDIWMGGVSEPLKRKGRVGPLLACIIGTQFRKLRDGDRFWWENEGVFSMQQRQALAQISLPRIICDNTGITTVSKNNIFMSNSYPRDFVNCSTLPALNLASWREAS
Residues, ends and D or L forms follow the SMILES beside them.
experimental.endpoint: IC50

Form: Entry = CC(=O)N[C@@H](CCCCN)C(=O)N[C@@H](Cc1ccc(O)cc1)C(=O)N[C@@H](CS)C(N)=O [KYC, N-acetyl Lysyltyrosylcysteine Amide] (Ac-Lys-Tyr-Cys-NH2) | System = MPO (Homo sapiens) | IC50 = ____
~7 µM
